Below is a list of entries, each paired with its recorded IC50 value.
Molecular target: T1, C3b (human, UniProt P01024 23-667; P01024 749-1663)
T1 construct: also called soluble C3b; human C3b
T1 sequence (P01024 23-667 limits assumed, chain 1 of 2): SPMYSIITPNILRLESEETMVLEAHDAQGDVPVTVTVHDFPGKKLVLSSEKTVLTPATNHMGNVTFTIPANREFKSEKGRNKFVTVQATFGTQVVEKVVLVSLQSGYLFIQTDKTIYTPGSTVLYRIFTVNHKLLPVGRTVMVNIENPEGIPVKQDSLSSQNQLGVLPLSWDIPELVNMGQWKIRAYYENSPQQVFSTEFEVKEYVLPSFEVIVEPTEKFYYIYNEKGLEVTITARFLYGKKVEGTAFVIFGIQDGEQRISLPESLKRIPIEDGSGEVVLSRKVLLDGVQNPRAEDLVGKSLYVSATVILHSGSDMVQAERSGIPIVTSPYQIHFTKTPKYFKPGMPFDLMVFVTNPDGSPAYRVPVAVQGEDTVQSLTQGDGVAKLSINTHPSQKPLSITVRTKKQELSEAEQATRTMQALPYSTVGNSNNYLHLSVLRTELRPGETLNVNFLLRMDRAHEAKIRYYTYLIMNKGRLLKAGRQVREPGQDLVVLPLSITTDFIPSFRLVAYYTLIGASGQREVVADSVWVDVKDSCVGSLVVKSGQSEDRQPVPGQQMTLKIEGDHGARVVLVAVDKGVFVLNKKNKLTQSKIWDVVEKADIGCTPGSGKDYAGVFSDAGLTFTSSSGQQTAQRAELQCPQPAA
T1 sequence (P01024 749-1663 limits assumed, chain 2 of 2): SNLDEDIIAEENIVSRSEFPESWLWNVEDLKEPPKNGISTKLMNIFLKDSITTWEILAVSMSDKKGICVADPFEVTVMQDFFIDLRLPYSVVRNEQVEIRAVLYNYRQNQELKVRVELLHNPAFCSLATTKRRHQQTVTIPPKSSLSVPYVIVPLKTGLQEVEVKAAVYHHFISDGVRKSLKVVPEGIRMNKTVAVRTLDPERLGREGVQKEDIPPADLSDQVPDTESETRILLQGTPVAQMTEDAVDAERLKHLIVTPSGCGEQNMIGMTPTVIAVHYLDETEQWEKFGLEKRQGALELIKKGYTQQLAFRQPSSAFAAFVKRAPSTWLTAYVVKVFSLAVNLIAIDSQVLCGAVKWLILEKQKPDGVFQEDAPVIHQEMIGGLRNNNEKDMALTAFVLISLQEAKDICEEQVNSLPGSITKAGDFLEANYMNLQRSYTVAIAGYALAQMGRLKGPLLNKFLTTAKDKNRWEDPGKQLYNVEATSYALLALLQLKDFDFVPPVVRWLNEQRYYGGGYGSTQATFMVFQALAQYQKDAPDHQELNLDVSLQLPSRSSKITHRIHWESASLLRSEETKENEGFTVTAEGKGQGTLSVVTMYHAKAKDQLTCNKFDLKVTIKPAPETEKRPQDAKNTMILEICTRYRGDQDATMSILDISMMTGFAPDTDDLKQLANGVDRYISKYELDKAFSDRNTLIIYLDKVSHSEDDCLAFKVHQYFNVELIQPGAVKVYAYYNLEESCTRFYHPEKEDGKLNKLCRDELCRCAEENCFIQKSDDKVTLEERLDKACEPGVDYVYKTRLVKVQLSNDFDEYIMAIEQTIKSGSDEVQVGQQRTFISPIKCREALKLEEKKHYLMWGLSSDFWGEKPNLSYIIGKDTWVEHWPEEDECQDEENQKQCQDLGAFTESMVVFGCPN
Assay: competitive ELISA, column 'Mu Ic50 (nM)'; format of paragraph 183: variant in solution competes with coated huCRIg(L)-LFH for C3b
Only the number, expressed in nM, is required.

Completed entries (count: 2):
| binder | measurement |
| --- | --- |
| IRL11 (receptor, also called Q60I-Q64R/E8Y) CRIg variant: RPILEVPYSVTGPWKGDVNLPCTYDPLQGYTQVLVKWLVQRGSDPVTIFLRDSSGDHIQIAKYRGRLHVSHKVPGDVSLQLSTLEMDDRSHYTCEVTWQTPDGNQVVRDKITELRVQKHSSKLLKTKTEAPTTMTYPLKATSTVKQSWDWTTDMDGYLGETSAGPGK | 34 |
| RL59 (receptor, also called Q64R/Q105R/K110N) CRIg variant: RPILEVPESVTGPWKGDVNLPCTYDPLQGYTQVLVKWLVQRGSDPVTIFLRDSSGDHIQQAKYRGRLHVSHKVPGDVSLQLSTLEMDDRSHYTCEVTWQTPDGNRVVRDNITELRVQKHSSKLLKTKTEAPTTMTYPLKATSTVKQSWDWTTDMDGYLGETSAGPGK | 65 |

Please examine the following record next.
Form field IC50, entry IRL24 (receptor, the mutation string is cut off at the cell border on the sheet; also called Q60I/Q64R/G42D/D44H/P45F) CRIg variant: RPILEVPESVTGPWKGDVNLPCTYDPLQGYTQVLVKWLVQRDSHFVTIFLRDSSGDHIQIAKYRGRLHVSHKVPGDVSLQLSTLEMDDRSHYTCEVTWQTPDGNQVVRDKITELRVQKHSSKLLKTKTEAPTTMTYPLKATSTVKQSWDWTTDMDGYLGETSAGPGKSLP : 4
